# assay-text: Cytotoxicity against rat WB-F344 cells assessed as cell survival rate after 1 hr at 100 uM by MTT assay
# Assay type: cell-based
# assay-context: read-out: Survival
Measured viability at 1 h, 100 µM accompanies every entry in the list below.
// note: answer is a bare numeric in %

Below are worked cases with known answers.
| molecule | readout-name | unit | endpoint-result |
| --- | --- | --- | --- |
| COc1cc(C(=O)O[C@H]2C[C@](O)(C(=O)O)C[C@H](O)[C@H]2OC(=O)/C=C/c2ccc(O)c(O)c2)cc(OC)c1O | viability at 1 h, 100 µM | % | 61 |
| COC(=O)c1cc(OC)c2c(c1-c1c(CO)cc(OC)c3c1OCO3)OCO2 [BICYCLOL] | viability at 1 h, 100 µM | % | 38 |

Proceed to the following item.
Name the recorded viability at 1 h, 100 µM of the item COc1cc(C(=O)OC[C@@]2(O)CO[C@@H](OC[C@H]3O[C@@H](Oc4c(OC)cc5ccc(=O)oc5c4OC)[C@H](O)[C@@H](O)[C@@H]3O)[C@@H]2O)cc(OC)c1O [ERYCIBOSIDE F] in your answer. 44

---

# assay-text: Cytotoxicity against rat WB-F344 cells assessed as cell survival rate after 1 hr at 10 uM by MTT assay
# Assay type: cell-based
# assay-context: read-out: Survival
readout-name: viability at 1 h, 10 µM (%)
// units = %; emit number, no label

Tell us which viability at 1 h, 10 µM value is on record for COc1cc2ccc(=O)oc2cc1O[C@@H]1O[C@H](CO[C@@H]2OC[C@](O)(CO)[C@H]2OC(=O)c2cc(OC)c(O)c(OC)c2)[C@@H](O)[C@H](O)[C@H]1O [ERYCIBOSIDE B] 47

Source listed as ChEMBL document CHEMBL1154898.
